Reported kon values are given for each entry in this list.
- TARGET_OR_SYSTEM: T1, monkey GPC3-His protein (monkey)
- T1 construct: Bought recombinant protein; also called monkey GPC3 protein
- METHOD: SPR, antibody captured on Protein A chip, monkey GPC3-His analyte;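 also: run at 25 °C with 240 s association and up to 600 s dissociation, double-referenced, kinetics fitted to a 1:1 Langmuir binding model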
// return numeric value only (unit: M⁻¹ s⁻¹, not printed)

// solved cases for kon follow
| BINDER | METRIC_NAME | VALUE_MEASURED |
| --- | --- | --- |
| F1.153.1 (antibody, human IgG1, kappa, V domains shown, Human-murine chimeric antibody) VH: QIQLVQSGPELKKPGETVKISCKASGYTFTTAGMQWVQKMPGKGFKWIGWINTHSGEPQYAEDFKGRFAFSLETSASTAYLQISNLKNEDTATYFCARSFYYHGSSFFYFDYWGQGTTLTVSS VL: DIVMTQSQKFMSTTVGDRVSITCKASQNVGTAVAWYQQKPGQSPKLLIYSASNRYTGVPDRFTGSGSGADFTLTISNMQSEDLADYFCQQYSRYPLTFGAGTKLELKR | kon | 103000 |
| F1.115.8 (antibody, human IgG1, kappa, V domains shown, Human-murine chimeric antibody) VH: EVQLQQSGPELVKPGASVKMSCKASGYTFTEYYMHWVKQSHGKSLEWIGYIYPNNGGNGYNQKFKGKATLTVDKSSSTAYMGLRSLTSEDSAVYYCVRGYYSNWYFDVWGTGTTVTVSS VL: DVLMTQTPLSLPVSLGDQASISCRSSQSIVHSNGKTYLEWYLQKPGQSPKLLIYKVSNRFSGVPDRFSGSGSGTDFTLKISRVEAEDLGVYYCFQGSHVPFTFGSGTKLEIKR | kon | 1.38e+06 |
| F1.110.24 (antibody, human IgG1, kappa, V domains shown, Human-murine chimeric antibody) VH: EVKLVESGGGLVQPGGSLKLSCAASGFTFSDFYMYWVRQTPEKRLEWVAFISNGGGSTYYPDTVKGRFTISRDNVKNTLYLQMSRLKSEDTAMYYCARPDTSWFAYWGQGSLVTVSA VL: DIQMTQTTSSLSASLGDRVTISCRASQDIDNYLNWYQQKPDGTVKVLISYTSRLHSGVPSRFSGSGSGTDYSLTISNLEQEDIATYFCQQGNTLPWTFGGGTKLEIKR | kon | 248000 |

kon measured on F1.21.8 (antibody, human IgG1, kappa, V domains shown, Human-murine chimeric antibody) VH: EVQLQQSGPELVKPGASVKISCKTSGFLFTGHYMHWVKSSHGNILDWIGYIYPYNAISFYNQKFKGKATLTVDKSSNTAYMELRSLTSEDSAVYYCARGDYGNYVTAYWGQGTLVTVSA VL: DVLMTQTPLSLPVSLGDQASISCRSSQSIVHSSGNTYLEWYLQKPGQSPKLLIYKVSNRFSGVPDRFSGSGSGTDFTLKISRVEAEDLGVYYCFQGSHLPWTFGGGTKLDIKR = 464000

Ref: patent US20260116991A1
